Measured pIC50, listed per entry.
TESTED_ON: Cyclin-dependent kinase 2/cyclin E (Homo sapiens)
METHOD_SUMMARY: Inhibitory concentration against cyclin dependent kinase-2 (CDK2)/Cyclin E
pIC50: −log10 of the molar value.

Study these solved cases before continuing.
[[record]]
molecule = "CCn1cnc2c(NCCc3ccccc3)nc(Cl)nc21"
result = "< 5.30"

[[record]]
molecule = "COc1ccc(CNc2nc(NC3CCCCC3O)nc3c2ncn3C(C)C)cc1 (centres undefined)"
result = 6.00

[[record]]
molecule = "CC(C)n1cnc2c(NCCCc3ccccc3)nc(N(CCO)CCO)nc21"
result = "< 5.30"


We next turn to a different molecule, shown below.
Give a short answer stating reported pIC50 for C=CCN(CC=C)c1nc(NCc2ccc(OC)cc2)c2ncn(C(C)C)c2n1 .
< 5.30

Sourced from ChEMBL document CHEMBL1129208
